# TEST_TARGET: MAP kinase-activated protein kinase 5 (Homo sapiens);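 further: mean inhibition of PRAK measured in the GSK PKIS screen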
# PROTOCOL_CONDITIONS: at 1 µM
MEASURED_QUANTITY: inhibition (%)
Reply with just the number (in %).

COc1ccc(-c2nn3ncccc3c2-c2ccnc(Nc3cccc(C(F)(F)F)c3)n2)cc1    1.07
NS(=O)(=O)c1cccc(-c2cc3ccncc3cc2OCc2ccccc2)c1    0.61

Please turn your attention to the following entry.
For this molecule ( ON=C1CCc2cc(-c3nc(C4CCNCC4)[nH]c3-c3ccncc3)ccc21 ), measured inhibition is -1.28

====

Here the recorded inhibition is given for each entry.
# TEST_TARGET: Mitogen-activated protein kinase 9 (Homo sapiens);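 further: reported figure is the mean inhibition of JNK2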
# PROTOCOL_CONDITIONS: at 1 µM
Reply with just the number (in %).

Some solved entries appear below for comparison.
Cc1ccc2c(-c3ccnc(Nc4cccc(C(F)(F)F)c4)n3)c(-c3ccccc3)nn2n1    82.2
CCCN1CCCC(c2ccc(Nc3nc(Nc4cc(F)ccc4C(N)=O)c4cc[nH]c4n3)c(OC)c2)C1 (centres undefined)    91.3
N#Cc1c(NC(=O)c2ccccc2F)sc2c1CCCC2    2.33

For this compound ( NS(=O)(=O)c1ccc(-c2cc3ccncc3cc2OCc2ccccc2)cc1 ), measured inhibition is 6.21

For this compound ( [O-][S+]1CCN(Cc2ccc(-c3ccc4ncnc(Nc5ccc(OCc6ccccc6)c(Cl)c5)c4c3)o2)CC1 ), measured inhibition is 2.26

For this compound ( c1ccc(Cc2nc3ccc(Nc4ncnc5ccccc45)cc3[nH]2)cc1 ), measured inhibition is 3.95

For this compound ( CN(C)c1cc2c(Nc3ccc4c(cnn4Cc4ccccc4)c3)ncnc2cn1 ), measured inhibition is 2.39

For this compound ( O=C(Nc1ccc(Oc2ccc3[nH]c(NC(=O)c4ccco4)nc3c2)cc1)Nc1cc(C(F)(F)F)ccc1F ), measured inhibition is 2.67

====

# TEST_TARGET: G protein-coupled receptor kinase 6 (Homo sapiens) (UniProt P43250);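 further: values are averaged percent inhibition of GRK6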
# Sequence (P43250 whole entry, looked up): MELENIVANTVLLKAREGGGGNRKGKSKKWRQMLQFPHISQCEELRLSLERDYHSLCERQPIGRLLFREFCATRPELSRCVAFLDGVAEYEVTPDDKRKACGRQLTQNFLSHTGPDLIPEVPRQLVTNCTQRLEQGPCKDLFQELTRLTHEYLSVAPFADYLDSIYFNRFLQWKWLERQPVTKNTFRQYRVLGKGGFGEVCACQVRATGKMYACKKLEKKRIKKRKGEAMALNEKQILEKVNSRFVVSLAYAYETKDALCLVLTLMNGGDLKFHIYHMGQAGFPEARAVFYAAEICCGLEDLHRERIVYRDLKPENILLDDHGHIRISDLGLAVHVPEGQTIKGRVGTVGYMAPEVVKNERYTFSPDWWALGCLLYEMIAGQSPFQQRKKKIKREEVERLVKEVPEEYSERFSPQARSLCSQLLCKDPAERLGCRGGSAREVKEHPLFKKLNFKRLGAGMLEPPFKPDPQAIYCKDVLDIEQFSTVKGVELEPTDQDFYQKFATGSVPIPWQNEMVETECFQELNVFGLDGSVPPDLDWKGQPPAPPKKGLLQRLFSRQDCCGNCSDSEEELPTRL
# PROTOCOL_CONDITIONS: at 1 µM
MEASURED_QUANTITY: inhibition (%)
Reply with just the number (in %).

Some solved entries appear below for comparison.
Cc1ccc2c(-c3ccnc(Nc4ccc5c(c4)OCCO5)n3)c(-c3ccc(C(F)(F)F)cc3)nn2n1    2.19
c1ccc(Cc2nc3ccc(Nc4ncnc5ccccc45)cc3[nH]2)cc1    3.05

For this compound ( COc1cccc(-n2ncc3c(N/N=C/c4ccc(C)cc4)ncnc32)c1 ), measured inhibition is 5.93

====

Here the recorded inhibition is given for each entry.
# TEST_TARGET: Tyrosine-protein kinase Fyn (Homo sapiens) (UniProt P06241)
# Sequence (P06241 2-537 limits assumed): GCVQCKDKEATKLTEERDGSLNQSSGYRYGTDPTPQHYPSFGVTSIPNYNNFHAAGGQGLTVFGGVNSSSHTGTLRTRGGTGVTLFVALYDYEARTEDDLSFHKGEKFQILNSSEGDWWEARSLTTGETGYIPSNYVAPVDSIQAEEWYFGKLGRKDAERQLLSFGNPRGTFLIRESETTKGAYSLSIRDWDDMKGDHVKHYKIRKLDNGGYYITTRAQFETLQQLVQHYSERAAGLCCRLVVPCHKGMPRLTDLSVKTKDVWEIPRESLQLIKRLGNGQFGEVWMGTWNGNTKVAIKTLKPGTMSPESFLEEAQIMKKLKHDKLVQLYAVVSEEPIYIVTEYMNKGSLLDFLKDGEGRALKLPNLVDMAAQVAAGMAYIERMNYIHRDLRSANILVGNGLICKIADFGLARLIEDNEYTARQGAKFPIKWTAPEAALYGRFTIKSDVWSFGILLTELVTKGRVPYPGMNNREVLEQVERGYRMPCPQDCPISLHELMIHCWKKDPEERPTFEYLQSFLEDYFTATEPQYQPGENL
# PROTOCOL_CONDITIONS: at 1 µM
# Description: GSK_PKIS: FYN mean inhibition at 1 uM [Nanosyn]
Reply with just the number (in %).

Some solved entries appear below for comparison.
NS(=O)(=O)c1ccc(Nc2cc(-c3cccc(O)c3)n[nH]2)cc1    2.45
Nc1ccc(C#Cc2cncnc2Nc2ccc(OCc3cccc(F)c3)c(Cl)c2)cc1    1.14
CCn1c(-c2nonc2N)nc2ccc(F)cc21    4.14
Cc1ccc(Nc2ccnc(Nc3cccc(C(N)=O)c3)n2)cc1O    89.4
CCn1c(-c2nonc2N)nc2c(C#CC(C)(C)O)nc(OCCNC)cc21    4.65

For this compound ( Nc1nccc(C#Cc2cncnc2Nc2ccc(OCc3cccc(F)c3)c(Cl)c2)n1 ), measured inhibition is 2.19

For this compound ( FC(F)(F)c1ccc(-c2nn3ncccc3c2-c2ccnc(Nc3ccc4c(c3)OCCO4)n2)cc1 ), measured inhibition is 21.2

For this compound ( Nc1nccc(-c2c(-c3ccc(F)cc3)nn3cc(C(F)(F)F)ccc23)n1 ), measured inhibition is 2.33
